- Read-out: Macrophage colony-stimulating factor (MCSF), CSF1 (gene 1435)
- experimental.details: BSK_CASM3C_MCSF: BioMAP Diversity Plus: CASM3C Assay for Macrophage colony-stimulating factor (MCSF) Biomarker Activity (AID 2283044);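 also: M-CSF protein amount quantified by ELISA after 24 h exposure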
- condition.notes: primary human coronary artery smooth muscle cells; actives raise or lower the signal
Active and inactive are the calls of the source. The calls were made as follows: active = hit-call score of the fitted dose curve at least 0.9, where 1 is the maximum; inactive = score below 0.9.
Labels: active, inactive

>>> print(df.to_string())
                                    compound       cat
 0                  CC1(C)CC(O)CC(C)(C)N1[O]  inactive
 1  CCC1(C)C(=O)N(Cl)C(=O)N1Cl (centres undefined)  inactive
 2                         C=CC(=O)NC(C)(C)C  inactive
 3      CCOC(=O)C1=NOC(c2ccccc2)(c2ccccc2)C1  inactive
 4                             Cc1c(O)cccc1O  inactive
 5                          O=C1CCCCCCCCCCC1  inactive
 6                  Cc1ccc([N+](=O)[O-])cc1N  inactive
 7  CC(C)[N+](C)(CCOC(=O)C1c2ccccc2Oc2ccccc21)C(C)C  inactive
 8            Oc1ccc(/C=C/c2cc(O)cc(O)c2)cc1  inactive
 9  CC(Cl)COP(=O)(OCC(C)Cl)OCC(C)Cl (centres undefined)  inactive
10  CCc1cccc(C)c1N(C(=O)CS(=O)(=O)O)C(C)COC (centres undefined)  inactive
11                           C=CC(=O)NCOCCCC  inactive
12    O=C(Cl)c1c(Cl)c(Cl)c(C(=O)Cl)c(Cl)c1Cl  inactive
13   CCCCCCCCC(CO)CCCCCC (centres undefined)  inactive
14       CCCC(C)C(=O)OCC (centres undefined)  inactive
15                              Nc1cccc(N)n1  inactive
16               CCCCCCCCCCCC(=O)N(C)CC(=O)O  inactive
17                             Fc1ccc(Br)cc1  inactive
18                                  C1CNCCN1  inactive
19                        CCN1CN(CC)CN(CC)C1  inactive
20                CCNc1nc(NC(C)(C)C)nc(OC)n1  inactive
21                         Nc1ccc(C(=O)O)cc1  inactive
22                     CCOC(=O)/C=C\C(=O)OCC  inactive
23                           CCCCCC1=CCCC1=O  inactive
24  C=CC(=O)OCC(C)OCC(C)OCC(C)OC(=O)C=C (centres undefined)    active
25                   Nc1nc(N)nc(-c2ccccc2)n1  inactive
26              COc1ccc(C(=O)c2ccccc2)c(O)c1  inactive
27            COC(OC)(C(=O)c1ccccc1)c1ccccc1  inactive
28                   Oc1c(Cl)cc(Cl)c(Cl)c1Cl  inactive
29  CCOC(=O)C1=NN(c2ccc(Cl)cc2Cl)C(C)(C(=O)OCC)C1 (centres undefined)  inactive
30                        CC(C)CCCCCOC(=O)CS  inactive
31                         O=C1CCCCCCCCCCCN1  inactive
32              CCCCCCOC(=O)CCCCC(=O)OCCCCCC  inactive
33                       Oc1ccccc1Cc1ccccc1O  inactive
34         CC/C=C\C/C=C\C/C=C\CCCCCCCC(=O)OC    active
35                         CC=C(C)C=CC=C(C)C    active
36                  CC/C=C\CCOC(=O)c1ccccc1O    active
37                  c1ccc2c(c1)[nH]c1ccccc12  inactive
38                                 CCCCCCC=O  inactive
